Consider the following compounds; for each one, report its pEC50.
MEASURED_TARGET: UniProt C4Q8W8
Sequence (C4Q8W8 1-497): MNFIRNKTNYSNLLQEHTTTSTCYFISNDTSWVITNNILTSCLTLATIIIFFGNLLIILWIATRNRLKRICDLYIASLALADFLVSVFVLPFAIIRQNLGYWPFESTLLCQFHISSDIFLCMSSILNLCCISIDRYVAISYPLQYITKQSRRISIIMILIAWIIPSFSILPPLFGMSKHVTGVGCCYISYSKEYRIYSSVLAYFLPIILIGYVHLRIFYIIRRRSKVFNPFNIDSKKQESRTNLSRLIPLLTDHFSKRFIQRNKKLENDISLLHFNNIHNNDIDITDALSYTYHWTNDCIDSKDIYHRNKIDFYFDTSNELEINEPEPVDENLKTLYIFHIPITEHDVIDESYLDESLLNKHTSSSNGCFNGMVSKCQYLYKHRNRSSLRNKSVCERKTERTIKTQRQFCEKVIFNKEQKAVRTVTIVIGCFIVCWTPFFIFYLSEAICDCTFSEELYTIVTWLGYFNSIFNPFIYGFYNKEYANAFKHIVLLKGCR
MEASUREMENT_PROTOCOL: cell-based
Just the number, please; pEC50 means minus log10 of the concentration in mol/L.

Query: pEC50 for NCCc1ccc(O)c(O)c1 ?
Reply: 4.51

Query: What do we get for CNCCc1ccc(O)c(O)c1 [epinine] ?
Reply: 4.55
